# EC50 listing for each entry below
# study-system: Apelin receptor (Homo sapiens)
# Sequence (P35414 whole entry): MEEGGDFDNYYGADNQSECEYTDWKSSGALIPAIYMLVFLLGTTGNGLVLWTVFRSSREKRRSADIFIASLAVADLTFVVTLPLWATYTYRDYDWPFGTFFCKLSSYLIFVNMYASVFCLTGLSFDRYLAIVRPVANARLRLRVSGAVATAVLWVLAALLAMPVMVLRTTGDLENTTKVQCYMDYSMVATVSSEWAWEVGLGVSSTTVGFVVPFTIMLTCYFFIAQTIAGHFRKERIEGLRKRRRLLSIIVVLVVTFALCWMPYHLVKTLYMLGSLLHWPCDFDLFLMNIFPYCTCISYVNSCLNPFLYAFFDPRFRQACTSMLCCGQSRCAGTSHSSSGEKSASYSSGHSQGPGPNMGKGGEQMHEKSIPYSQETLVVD
# experiment: Agonist activity at human APJ-R expressed in HEK293 cells assessed as inhibition of forskolin- stimulated cAMP accumulation incubated for 30 mins by HTRF assay
# Type: functional, cell-based
endpoint-label: EC50 (nM)

1. CCC[C@@H](NC(=O)c1ccc(-c2c(C)cccc2-c2nc3ccccc3[nH]2)c(C(=O)O)c1)c1ccccc1 = 0.18
2. CCC[C@@H](NC(=O)c1ccc(-c2cc(OC)ccc2-c2nc3ccccc3[nH]2)c(C(=O)O)c1)c1ccccc1 = 5.7
3. CCC[C@@H](NC(=O)c1ccc(-c2c(Cl)cccc2-c2nc3ccccc3[nH]2)c(C(=O)O)c1)c1ccccc1 (stereo in doubt; 15a) = 0.093
4. COC[C@H](NC(=O)c1ccc(-c2cc(Cl)ccc2C(=O)Nc2ccc(OC)c(F)c2)c(C(=O)O)c1)c1ccccc1 = 2.7
5. CCC[C@@H](NC(=O)c1ccc(-c2cc(Cl)ccc2-c2nc3ccncc3[nH]2)c(C(=O)O)c1)c1ccccc1 = 19
6. CCC[C@@H](NC(=O)c1ccc(-c2cc(Cl)ccc2-c2nc3cc(Cl)ccc3[nH]2)c(C(=O)O)c1)c1ccccc1 = 0.31
7. CCC[C@@H](NC(=O)c1ccc(-c2cc(Cl)ccc2-c2nc3cc(C)ccc3[nH]2)c(C(=O)O)c1)c1ccccc1 = 0.6
